This listing pairs compounds with measured AUC25.
Tested on: Mycobacterium tuberculosis Erdman (autoluminescent)
Assay: AUC25, normalised area under dose response up to IC25 (three-drug combination) (fraction (0-1)); higher = more potent at low dose
Details: in vitro model: dormancy (butyrate + nitrate, low O2); time point: constant (~7 days, model-specific)
Property measured: AUC25

{"columns": ["Compound", "Experimental result"],
 "data": [
  ["NNC(=O)c1ccncc1 [isoniazid] + NC(=O)c1cnccn1 [pyrazinamide] + CO[C@H]1/C=C/O[C@@]2(C)Oc3c(C)c(O)c4c(O)c(c(/C=N/N5CCN(C6CCCC6)CC5)c(O)c4c3C2=O)NC(=O)/C(C)=C\\C=C\\[C@H](C)[C@H](O)[C@@H](C)[C@@H](O)[C@@H](C)[C@H](OC(C)=O)[C@@H]1C [rifapentine]", 0.0611],
  ["COc1nc2ccc(Br)cc2cc1[C@@H](c1ccccc1)[C@@](O)(CCN(C)C)c1cccc2ccccc12 [bedaquiline] + CC[C@@H](CO)NCCN[C@@H](CC)CO [ethambutol] + COc1c(N2C[C@@H]3CCCN[C@@H]3C2)c(F)cc2c(=O)c(C(=O)O)cn(C3CC3)c12 [moxifloxacin]", 0.14],
  ["COc1nc2ccc(Br)cc2cc1[C@@H](c1ccccc1)[C@@](O)(CCN(C)C)c1cccc2ccccc12 [bedaquiline] + NNC(=O)c1ccncc1 [isoniazid] + O=[N+]([O-])c1cn2c(n1)OC[C@@H](OCc1ccc(OC(F)(F)F)cc1)C2 [pretomanid]", 0.0674]
]}

###

System: Mycobacterium tuberculosis Erdman (autoluminescent)
Assay: GRinf, maximum normalised growth rate inhibition (three-drug combination) (unitless (-1 to 1)); higher = less effect (negative = killing)
Conditions: in vitro model: acidic pH 5.7; time point: constant (~7 days, model-specific)

{"columns": ["Molecule", "Experimental system", "GRinf"],
 "data": [
  ["COc1nc2ccc(Br)cc2cc1[C@@H](c1ccccc1)[C@@](O)(CCN(C)C)c1cccc2ccccc12 [bedaquiline] + COc1c(N2C[C@@H]3CCCN[C@@H]3C2)c(F)cc2c(=O)c(C(=O)O)cn(C3CC3)c12 [moxifloxacin] + O=[N+]([O-])c1cn2c(n1)OC[C@@H](OCc1ccc(OC(F)(F)F)cc1)C2 [pretomanid]", "Mycobacterium tuberculosis Erdman (autoluminescent)", -0.377],
  ["CC[C@@H](CO)NCCN[C@@H](CC)CO [ethambutol] + O=[N+]([O-])c1cn2c(n1)OC[C@@H](OCc1ccc(OC(F)(F)F)cc1)C2 [pretomanid] + CO[C@H]1/C=C/O[C@@]2(C)Oc3c(C)c(O)c4c(O)c(c(/C=N/N5CCN(C)CC5)c(O)c4c3C2=O)NC(=O)/C(C)=C\\C=C\\[C@H](C)[C@H](O)[C@@H](C)[C@@H](O)[C@@H](C)[C@H](OC(C)=O)[C@@H]1C [rifampicin]", "Mycobacterium tuberculosis Erdman (autoluminescent)", -0.0878],
  ["COc1c(N2C[C@@H]3CCCN[C@@H]3C2)c(F)cc2c(=O)c(C(=O)O)cn(C3CC3)c12 [moxifloxacin] + O=[N+]([O-])c1cn2c(n1)OC[C@@H](OCc1ccc(OC(F)(F)F)cc1)C2 [pretomanid] + CO[C@H]1/C=C/O[C@@]2(C)Oc3c(C)c(O)c4c(O)c(c(/C=N/N5CCN(C)CC5)c(O)c4c3C2=O)NC(=O)/C(C)=C\\C=C\\[C@H](C)[C@H](O)[C@@H](C)[C@@H](O)[C@@H](C)[C@H](OC(C)=O)[C@@H]1C [rifampicin]", "Mycobacterium tuberculosis Erdman (autoluminescent)", -0.146]
]}

###

This listing pairs molecules with measured total FIC50.
System: Mycobacterium tuberculosis Erdman (autoluminescent)
Assay: total FIC50 (Loewe) at 50% inhibition, three-drug combination (log2); higher = more antagonistic
Conditions: in vitro model: valerate; time point: terminal (~4-5 doublings, model-specific)

{"columns": ["Molecule", "total FIC50"],
 "data": [
  ["CC(C)/N=c1\\cc2n(-c3ccc(Cl)cc3)c3ccccc3nc-2cc1Nc1ccc(Cl)cc1 [clofazimine] + NNC(=O)c1ccncc1 [isoniazid] + COc1c(N2C[C@@H]3CCCN[C@@H]3C2)c(F)cc2c(=O)c(C(=O)O)cn(C3CC3)c12 [moxifloxacin]", 0.256],
  ["CC[C@@H](CO)NCCN[C@@H](CC)CO [ethambutol] + NNC(=O)c1ccncc1 [isoniazid] + O=[N+]([O-])c1cn2c(n1)OC[C@@H](OCc1ccc(OC(F)(F)F)cc1)C2 [pretomanid]", 0.406],
  ["COc1nc2ccc(Br)cc2cc1[C@@H](c1ccccc1)[C@@](O)(CCN(C)C)c1cccc2ccccc12 [bedaquiline] + NNC(=O)c1ccncc1 [isoniazid] + O=[N+]([O-])c1cn2c(n1)OC[C@@H](OCc1ccc(OC(F)(F)F)cc1)C2 [pretomanid]", 0.661],
  ["COc1nc2ccc(Br)cc2cc1[C@@H](c1ccccc1)[C@@](O)(CCN(C)C)c1cccc2ccccc12 [bedaquiline] + NNC(=O)c1ccncc1 [isoniazid] + CC(=O)NC[C@H]1CN(c2ccc(N3CCOCC3)c(F)c2)C(=O)O1 [linezolid]", 0.894]
]}

###

System: Mycobacterium tuberculosis Erdman (autoluminescent)
Experiment: total FIC90 (Loewe) at 90% inhibition, three-drug combination (log2); higher = more antagonistic
Details: in vitro model: dormancy (butyrate + nitrate, low O2); time point: terminal (~4-5 doublings, model-specific)
Property measured: total FIC90

{"columns": ["Compound", "Experimental system", "Experimental result"],
 "data": [
  ["COc1nc2ccc(Br)cc2cc1[C@@H](c1ccccc1)[C@@](O)(CCN(C)C)c1cccc2ccccc12 [bedaquiline] + NC(=O)c1cnccn1 [pyrazinamide] + CO[C@H]1/C=C/O[C@@]2(C)Oc3c(C)c(O)c4c(O)c(c(/C=N/N5CCN(C)CC5)c(O)c4c3C2=O)NC(=O)/C(C)=C\\C=C\\[C@H](C)[C@H](O)[C@@H](C)[C@@H](O)[C@@H](C)[C@H](OC(C)=O)[C@@H]1C [rifampicin]", "Mycobacterium tuberculosis Erdman (autoluminescent)", -0.476],
  ["CC(C)/N=c1\\cc2n(-c3ccc(Cl)cc3)c3ccccc3nc-2cc1Nc1ccc(Cl)cc1 [clofazimine] + CC[C@@H](CO)NCCN[C@@H](CC)CO [ethambutol] + NNC(=O)c1ccncc1 [isoniazid]", "Mycobacterium tuberculosis Erdman (autoluminescent)", 0.753],
  ["CC(C)/N=c1\\cc2n(-c3ccc(Cl)cc3)c3ccccc3nc-2cc1Nc1ccc(Cl)cc1 [clofazimine] + NC(=O)c1cnccn1 [pyrazinamide] + CO[C@H]1/C=C/O[C@@]2(C)Oc3c(C)c(O)c4c(O)c(c(/C=N/N5CCN(C)CC5)c(O)c4c3C2=O)NC(=O)/C(C)=C\\C=C\\[C@H](C)[C@H](O)[C@@H](C)[C@@H](O)[C@@H](C)[C@H](OC(C)=O)[C@@H]1C [rifampicin]", "Mycobacterium tuberculosis Erdman (autoluminescent)", 0.318],
  ["CC[C@@H](CO)NCCN[C@@H](CC)CO [ethambutol] + NNC(=O)c1ccncc1 [isoniazid] + CO[C@H]1/C=C/O[C@@]2(C)Oc3c(C)c(O)c4c(O)c(c(/C=N/N5CCN(C6CCCC6)CC5)c(O)c4c3C2=O)NC(=O)/C(C)=C\\C=C\\[C@H](C)[C@H](O)[C@@H](C)[C@@H](O)[C@@H](C)[C@H](OC(C)=O)[C@@H]1C [rifapentine]", "Mycobacterium tuberculosis Erdman (autoluminescent)", 0.792],
  ["CC(=O)NC[C@H]1CN(c2ccc(N3CCOCC3)c(F)c2)C(=O)O1 [linezolid] + O=[N+]([O-])c1cn2c(n1)OC[C@@H](OCc1ccc(OC(F)(F)F)cc1)C2 [pretomanid] + CO[C@H]1/C=C/O[C@@]2(C)Oc3c(C)c(O)c4c(O)c(c(/C=N/N5CCN(C6CCCC6)CC5)c(O)c4c3C2=O)NC(=O)/C(C)=C\\C=C\\[C@H](C)[C@H](O)[C@@H](C)[C@@H](O)[C@@H](C)[C@H](OC(C)=O)[C@@H]1C [rifapentine]", "Mycobacterium tuberculosis Erdman (autoluminescent)", 0.899],
  ["CC(=O)NC[C@H]1CN(c2ccc(N3CCOCC3)c(F)c2)C(=O)O1 [linezolid] + O=[N+]([O-])c1cn2c(n1)OC[C@@H](OCc1ccc(OC(F)(F)F)cc1)C2 [pretomanid] + NC(=O)c1cnccn1 [pyrazinamide]", "Mycobacterium tuberculosis Erdman (autoluminescent)", 0.511],
  ["CC[C@@H](CO)NCCN[C@@H](CC)CO [ethambutol] + NNC(=O)c1ccncc1 [isoniazid] + COc1c(N2C[C@@H]3CCCN[C@@H]3C2)c(F)cc2c(=O)c(C(=O)O)cn(C3CC3)c12 [moxifloxacin]", "Mycobacterium tuberculosis Erdman (autoluminescent)", 0.658]
]}

###

Tested on: Mycobacterium tuberculosis Erdman (autoluminescent)
Assay: AUC25, normalised area under dose response up to IC25 (three-drug combination) (fraction (0-1)); higher = more potent at low dose
Settings: in vitro model: valerate; time point: constant (~7 days, model-specific)

{"columns": ["Molecule", "AUC25"],
 "data": [
  ["COc1nc2ccc(Br)cc2cc1[C@@H](c1ccccc1)[C@@](O)(CCN(C)C)c1cccc2ccccc12 [bedaquiline] + CC(C)/N=c1\\cc2n(-c3ccc(Cl)cc3)c3ccccc3nc-2cc1Nc1ccc(Cl)cc1 [clofazimine] + CO[C@H]1/C=C/O[C@@]2(C)Oc3c(C)c(O)c4c(O)c(c(/C=N/N5CCN(C)CC5)c(O)c4c3C2=O)NC(=O)/C(C)=C\\C=C\\[C@H](C)[C@H](O)[C@@H](C)[C@@H](O)[C@@H](C)[C@H](OC(C)=O)[C@@H]1C [rifampicin]", 0.0872],
  ["CC(C)/N=c1\\cc2n(-c3ccc(Cl)cc3)c3ccccc3nc-2cc1Nc1ccc(Cl)cc1 [clofazimine] + O=[N+]([O-])c1cn2c(n1)OC[C@@H](OCc1ccc(OC(F)(F)F)cc1)C2 [pretomanid] + CO[C@H]1/C=C/O[C@@]2(C)Oc3c(C)c(O)c4c(O)c(c(/C=N/N5CCN(C6CCCC6)CC5)c(O)c4c3C2=O)NC(=O)/C(C)=C\\C=C\\[C@H](C)[C@H](O)[C@@H](C)[C@@H](O)[C@@H](C)[C@H](OC(C)=O)[C@@H]1C [rifapentine]", 0.155],
  ["COc1nc2ccc(Br)cc2cc1[C@@H](c1ccccc1)[C@@](O)(CCN(C)C)c1cccc2ccccc12 [bedaquiline] + COc1c(N2C[C@@H]3CCCN[C@@H]3C2)c(F)cc2c(=O)c(C(=O)O)cn(C3CC3)c12 [moxifloxacin] + O=[N+]([O-])c1cn2c(n1)OC[C@@H](OCc1ccc(OC(F)(F)F)cc1)C2 [pretomanid]", 0.123],
  ["COc1c(N2C[C@@H]3CCCN[C@@H]3C2)c(F)cc2c(=O)c(C(=O)O)cn(C3CC3)c12 [moxifloxacin] + NC(=O)c1cnccn1 [pyrazinamide] + CO[C@H]1/C=C/O[C@@]2(C)Oc3c(C)c(O)c4c(O)c(c(/C=N/N5CCN(C6CCCC6)CC5)c(O)c4c3C2=O)NC(=O)/C(C)=C\\C=C\\[C@H](C)[C@H](O)[C@@H](C)[C@@H](O)[C@@H](C)[C@H](OC(C)=O)[C@@H]1C [rifapentine]", 0.0789],
  ["CC(C)/N=c1\\cc2n(-c3ccc(Cl)cc3)c3ccccc3nc-2cc1Nc1ccc(Cl)cc1 [clofazimine] + O=[N+]([O-])c1cn2c(n1)OC[C@@H](OCc1ccc(OC(F)(F)F)cc1)C2 [pretomanid] + NC(=O)c1cnccn1 [pyrazinamide]", 0.125],
  ["COc1nc2ccc(Br)cc2cc1[C@@H](c1ccccc1)[C@@](O)(CCN(C)C)c1cccc2ccccc12 [bedaquiline] + CC(C)/N=c1\\cc2n(-c3ccc(Cl)cc3)c3ccccc3nc-2cc1Nc1ccc(Cl)cc1 [clofazimine] + COc1c(N2C[C@@H]3CCCN[C@@H]3C2)c(F)cc2c(=O)c(C(=O)O)cn(C3CC3)c12 [moxifloxacin]", 0.121]
]}
